Source listed as ChEMBL document CHEMBL1201862.

assay-system: High affinity choline transporter 1 (Homo sapiens)
Sequence (Q9GZV3 whole entry): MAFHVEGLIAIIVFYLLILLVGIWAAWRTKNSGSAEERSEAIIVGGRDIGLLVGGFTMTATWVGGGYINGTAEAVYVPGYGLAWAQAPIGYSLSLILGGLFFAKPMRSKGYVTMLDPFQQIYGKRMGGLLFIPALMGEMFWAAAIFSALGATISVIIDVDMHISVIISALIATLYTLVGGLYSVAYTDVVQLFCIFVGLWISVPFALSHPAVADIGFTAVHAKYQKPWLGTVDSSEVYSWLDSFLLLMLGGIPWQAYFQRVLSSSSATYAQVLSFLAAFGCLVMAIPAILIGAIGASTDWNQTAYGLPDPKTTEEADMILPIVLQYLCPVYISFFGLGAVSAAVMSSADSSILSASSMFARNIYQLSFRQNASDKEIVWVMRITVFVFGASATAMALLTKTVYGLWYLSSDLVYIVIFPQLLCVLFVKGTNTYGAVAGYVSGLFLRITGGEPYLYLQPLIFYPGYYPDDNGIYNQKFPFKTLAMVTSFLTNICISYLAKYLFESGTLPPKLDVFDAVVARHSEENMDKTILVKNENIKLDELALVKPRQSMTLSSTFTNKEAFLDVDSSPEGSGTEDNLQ
method-summary: human choline transporter blockers, potency – cell-based, 5-point CRC, membrane potential dye, dose response (AID 504840)
Format: functional
Activity calls are given as the source filed them.
In this section we review reported IC50 values for a set of molecules.

molecule: Cn1ccnc1SCC(=O)Nc1ccc2nc(SCC(=O)NC3CC3)sc2c1
IC50: 4.29 µM (active)
//
molecule: Cc1cc(C)c(Cn2c3ccccc3c3cnn(CC(=O)NCCN4CCOCC4)c(=O)c32)c(C)c1
IC50: 15.8 µM (active)
//
molecule: Cc1cccc(C)c1-n1cccc1/C=C1/C(=N)N2C(=NC1=O)SN=C2S(C)(=O)=O
IC50: 8.3 µM (active)
//
molecule: O=C(Nc1cc(S(=O)(=O)N2CCCCC2)ccc1O)c1ccccc1NS(=O)(=O)c1ccc(F)cc1
IC50: 13.2 µM (active)
//
molecule: Cc1cccc(N2CCN(C(=O)c3ccc(CNc4c(N5CCC(C)CC5)c(=O)c4=O)cc3)CC2C)c1 (configuration not stated)
IC50: 14.5 µM (active)

Quickly give me recorded IC50 for `CC(C)Cn1c(=O)c2c(nc3n2CCCN3CCc2ccccc2)n(C)c1=O` 13.2 µM (active)

Quickly give me recorded IC50 for `COc1cccc(-c2nn(-c3ccccc3)cc2/C=C(\C#N)C(=O)NCCCn2ccnc2)c1` 10.5 µM (active)

* * *

assay-system: Phospholipase A2 (Homo sapiens, UniProt P04054);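 further: confirmatory dose-response counterscreen on phospholipase A2, testing hits that came from an ultra-high-throughput screen for ATG4B inhibitors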
Sequence (P04054 whole entry): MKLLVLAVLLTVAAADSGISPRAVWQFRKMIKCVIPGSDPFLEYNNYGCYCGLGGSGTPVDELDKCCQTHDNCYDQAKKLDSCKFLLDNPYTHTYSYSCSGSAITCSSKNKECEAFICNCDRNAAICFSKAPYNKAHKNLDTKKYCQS
Assay type: functional
Activity calls are given as the source filed them.
Output constraint: value belongs to true (1) = active, false (0) = inactive

Consider the worked cases shown below.
molecule: COc1cc(OC)cc(-c2nc3ccccc3c(=O)n2OC(=O)c2ccc(Br)cc2)c1
class: true (1)
//
molecule: N#Cc1c(N2CCCC2)nc(N)c2c(N)nc(N3CCCC3)cc12
class: true (1)
//
molecule: NS(=O)(=O)c1cc(C(=O)NC2CCSc3ccccc32)ccc1Cl (stereo unspecified)
class: false (0)

Fill in: this test's call for CC(C)c1ccc(NC2CCCN(C(=O)CCN3Cc4ccccc4C3=O)C2)cc1 (stereo unspecified) is ___ true (1)

Fill in: this test's call for `Cc1cc(NS(=O)(=O)c2ccc(Nc3nc(-c4ccc(C)c(C)c4)cs3)cc2)no1` is ___ true (1)

Fill in: this test's call for `COC(=O)c1cc(C)nc2c1C(=O)C(=O)C=C2N1CCOCC1` is ___ false (0)

* * *

method-summary: NIH-3T3 fibroblast cytotoxicity, dose response, cytotoxicity control, cell-based, fluorescence, Alamar Blue, secondary assay (AID 2327);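 further: NIH-3T3 mouse fibroblasts cultured with fluconazole at 8 µg/mL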
Assay type: functional
Activity calls are given as the source filed them.
endpoint-name: EC50

Observe how each entry below is paired with its result.
molecule: COc1ccc(C(=O)Oc2c(CN3CCOCC3)cc(Cl)c3cccnc23)cc1
EC50: > 160 µM (inactive)
--
molecule: O=C1c2ccccc2NC(c2ccc(-c3cccc(Cl)c3)o2)N1O (centres undefined)
EC50: 33.4 µM (active)
--
molecule: CCn1c(O)nnc1Sc1nc(C)nc2scc(-c3cccs3)c12
EC50: > 160 µM (inactive)

Let us move to another entry and its EC50.
Quickly give me recorded EC50 for `CC[C@@H]1C=CC=CC[C@H](C)[C@@H](O)[C@@H](C)C(=O)[C@H](C)[C@@H](O)[C@H](C)C(=O)[C@H](C)[C@@H](O)[C@H](C)C=CC(=O)O[C@H]2[C@@H](C)[C@@H](CC1)O[C@@]1(CC[C@@H](C)[C@@H](C[C@H](C)O)O1)[C@@H]2C` 15.6 µM (active)

* * *

assay-system: Kallikrein-7 (Homo sapiens, UniProt P49862)
Sequence (P49862 whole entry): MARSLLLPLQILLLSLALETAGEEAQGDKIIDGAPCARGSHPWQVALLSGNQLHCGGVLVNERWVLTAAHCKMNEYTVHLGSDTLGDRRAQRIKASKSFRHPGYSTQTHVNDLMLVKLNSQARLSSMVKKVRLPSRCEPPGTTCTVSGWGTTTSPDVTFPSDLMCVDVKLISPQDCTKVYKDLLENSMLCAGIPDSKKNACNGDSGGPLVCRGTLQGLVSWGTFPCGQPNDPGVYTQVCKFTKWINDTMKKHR
method-summary: Fluorescence Intensity-based biochemical primary high throughput dose response assay to identify activators of kallikrein-7 (K7) zymogen.
The source made the active and inactive calls.
endpoint-name: EC50

compound-smiles: Nc1c(Cl)cc(Cl)cc1C(=O)OCC(=O)N1CCCC1
EC50: > 69.5 µM (inactive)

compound-smiles: Oc1nc(-c2ccccc2Cl)c2cc(F)ccc2n1
EC50: > 69.5 µM (inactive)

compound-smiles: Cc1c(C2(O)CCCCC2)[nH]c2cnccc12
EC50: > 69.5 µM (inactive)

Let us move to another entry and its EC50.
Quickly give me recorded EC50 for `CCOC(=O)N1CCC2(CC1)NC(=O)c1ccccc1N2` > 69.5 µM (inactive)

* * *

Tested on: INS1
method-summary: INS-1E survival protection against cytokine death – cell-based, luminescence, retest, dose response (AID 449756);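 further: cell death triggered by IL-1 beta plus TNF-alpha plus IFN-gamma mixture; protective hits raise ATP signal compared with cytokine alone wells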
Type: functional
protocol-conditions: Rattus norvegicus
Active and inactive are the calls of the source.
endpoint-name: AC50

Quickly give me recorded AC50 for `COc1ccc(CCNc2cc(N3CCN(C(=O)c4ccccc4OC)CC3)ccc2[N+](=O)[O-])cc1OC` 4.67 µM (active)

Quickly give me recorded AC50 for `Cc1ccc(-c2cc(-c3ccc(C)cc3)[n+](-c3ccc(C(=O)[O-])cc3)c(-c3ccc(C)cc3)c2)cc1` 6.34 µM (active)

Quickly give me recorded AC50 for `COc1cccc(/C=N/NC(=O)c2c(C)nc3ccc(Cl)cn23)c1O` 0.879 µM (active)

Quickly give me recorded AC50 for `Nc1ccccc1C#CC(=O)c1ccccc1` 7.81 µM (active)

Quickly give me recorded AC50 for `Cc1nc(NC(=O)C23CC4CC(CC(C4)C2)C3)sc1Cc1ccc2c(c1)OCO2` 14.1 µM (active)

* * *

method-summary: Luminescence Cell-Based Dose Retest to Confirm Inhibitors of Cancer Stem Cells. [Related pubchem assays (depositor defined):AID2717, AID2721]
Type: functional
protocol-conditions: Homo sapiens
Activity calls are given as the source filed them.
endpoint-name: AC50

Observe how each entry below is paired with its result.
molecule: CC1CCN(CCCNC(=O)c2ccc3c(=O)n(Cc4ccc(Cl)cc4)c(=S)[nH]c3c2)CC1
AC50: 6.37 µM (active)
//
molecule: CC(C)(C)c1ccc(/C=C/C(=O)c2ccc(NC3=NCCCS3)cc2)cc1
AC50: 2.63 µM (active)

Quickly give me recorded AC50 for `CCOc1ccc(OCc2cccc(C(=O)Nc3ccc(CN4CCCCC4)cc3)c2)cc1` 5.46 µM (active)

Quickly give me recorded AC50 for CC/C(=C\C1CCCCC1)C(NP(=O)(c1ccccc1)c1ccccc1)c1ccccc1 (stereo not given) 2.58 µM (active)

Quickly give me recorded AC50 for `Cc1nn(Cc2ccc(Cl)cc2)c(Cl)c1/C=N/NC(=O)CNc1ccccc1F` 16.2 µM (active)

Quickly give me recorded AC50 for `CCc1cc2ccc(C)cc2nc1SCC(=O)c1ccc(NC(C)=O)cc1` 3.68 µM (active)

Quickly give me recorded AC50 for CC1CN(CCCCOc2cccc(Oc3ccccc3)c2)CC(C)O1 (stereo not given) 13.3 µM (active)

* * *

method-summary: intracellular Trypanosoma cruzi inhibitors in host cells – cell-based, plate reader, cherry-pick samples, set 3, dose response (AID 651818);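 further: compounds incubated with infected cells for about four days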
Format: functional
Calls of active or inactive are those of the source.
endpoint-name: AC50

Observe how each entry below is paired with its result.
compound-smiles: C[C@H]1CN([C@@H](C)CO)C(=O)c2cccc(NC(=O)C3CCCCC3)c2O[C@@H]1CN(C)Cc1ccc(Oc2ccccc2)cc1
AC50: 4.77 µM (active)
//
compound-smiles: C[C@H]1CN([C@@H](C)CO)C(=O)c2cccc(NS(=O)(=O)c3ccc(F)cc3)c2O[C@H]1CN(C)Cc1ccc(C(=O)Nc2ccccc2N)cc1
AC50: 3.43 µM (active)
//
compound-smiles: C[C@H](CO)N1C[C@H](C)[C@H](CN(C)Cc2ccccc2)Oc2c(NC(=O)c3ccncc3)cccc2C1=O
AC50: 0.208 µM (active)
//
compound-smiles: Cc1ccc(S(=O)(=O)N(C)C[C@@H]2Oc3c(NC(=O)Nc4ccc(C(F)(F)F)cc4)cccc3C(=O)N([C@H](C)CO)C[C@@H]2C)cc1
AC50: 5.16 µM (active)

Let us move to another entry and its AC50.
Quickly give me recorded AC50 for `C[C@H]1CN([C@@H](C)CO)C(=O)c2cccc(NC(=O)c3cnccn3)c2O[C@@H]1CN(C)Cc1ccc(C(=O)Nc2ccccc2N)cc1` 2.99 µM (active)

* * *

assay-system: Luciferin 4-monooxygenase (Photinus pyralis, UniProt P08659)
Sequence (P08659 whole entry): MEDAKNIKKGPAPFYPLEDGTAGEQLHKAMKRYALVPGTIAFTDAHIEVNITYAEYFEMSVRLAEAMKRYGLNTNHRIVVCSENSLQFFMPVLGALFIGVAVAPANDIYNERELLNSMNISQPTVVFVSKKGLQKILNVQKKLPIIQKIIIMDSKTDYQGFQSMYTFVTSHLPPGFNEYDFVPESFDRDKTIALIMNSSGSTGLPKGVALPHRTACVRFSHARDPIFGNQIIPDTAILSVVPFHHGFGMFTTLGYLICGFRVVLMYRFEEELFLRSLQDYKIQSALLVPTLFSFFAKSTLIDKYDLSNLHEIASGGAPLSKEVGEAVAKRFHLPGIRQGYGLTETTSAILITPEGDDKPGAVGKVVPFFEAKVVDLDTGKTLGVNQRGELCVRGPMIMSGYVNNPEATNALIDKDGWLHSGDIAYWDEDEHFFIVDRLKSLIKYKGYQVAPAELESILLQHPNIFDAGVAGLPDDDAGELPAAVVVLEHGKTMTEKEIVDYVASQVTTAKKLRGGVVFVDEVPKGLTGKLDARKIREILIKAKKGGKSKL
method-summary: inhibition of purified Photinus pyralis luciferase – biochemical, luminescence, dose response (AID 1891)
Calls of active or inactive are those of the source.
endpoint-name: EC50

Observe how each entry below is paired with its result.
compound-smiles: CCOC(=O)C1CCN(/C=N/c2cc(C)on2)CC1
EC50: > 112 µM (not active)

compound-smiles: C[C@@H](CO)NC(=O)c1ccc2c3n(nc2c1)-c1ccccc1CO3
EC50: 16.4 µM (active)

Tell me EC50 of `CCCOc1ccc(CNC(=O)c2ccc3c(c2)N(CC)CCS3)cc1` when tested on Luciferin 4-monooxygenase (Photinus pyralis, UniProt P08659). > 112 µM (not active)

* * *

In this section we review reported EC50 values for a set of compounds.
Test system: Streptococcus
method-summary: GAS UMAA2166 growth inhibition – luminescence, BacTiterGlo, counter-screen for streptokinase expression inhibitor project, dose response (AID 1915);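 further: potency for reduction of bacterial viability or growth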
Format: functional, organism-based
Activity calls are given as the source filed them.

Observe how each entry below is paired with its result.
compound: CCCCCC(=O)Cc1cc(O)cc2c1C(=O)Oc1cc(O)c(C(=O)O)c(CCCCC)c1O2
assay-system: Streptococcus
EC50: > 150 µM (not active)
--
compound: O=C(O)CN1C(=O)/C(=C\c2cc(Br)ccc2OCc2ccc(Cl)cc2Cl)SC1=S
assay-system: Streptococcus
EC50: 1.95 µM (active)
--
compound: CCOc1ccc(N(CC(=O)NCc2ccc(C)cc2)S(=O)(=O)c2c(C)nc(O)nc2O)cc1
assay-system: Streptococcus
EC50: > 150 µM (not active)
--
compound: CCCCCCn1c(=O)c(C(=O)N/N=C/c2cccc(F)c2)c(O)c2ccccc21
assay-system: Streptococcus
EC50: 16.1 µM (active)
--
compound: CCN(CC(=O)NC(C)(C)C)C(=O)COc1c(Cl)cc(Cl)c2ccc(C)nc12
assay-system: Streptococcus
EC50: 6.5 µM (active)

Quickly give me recorded EC50 for `COc1ccc(-c2ncn(CCC#N)c2[N+](=O)[O-])cc1` 5.92 µM (active)

Quickly give me recorded EC50 for `O=C(NCCCn1ccnc1)c1nn2c(C(F)(F)F)cc(-c3ccccc3)nc2c1Cl` > 150 µM (not active)

Quickly give me recorded EC50 for `O=C1c2ccccc2C(=O)c2[nH]c(O)nc21` > 150 µM (not active)

Quickly give me recorded EC50 for Cc1cccc(NC(=O)c2cc3n(n2)C(C(F)(F)F)CC(c2ccc4c(c2)OCO4)N3)c1 (stereo unspecified) 139 µM (active)

Quickly give me recorded EC50 for COCC1=C(C(=O)OC(C)OC(=O)OC(C)C)N2C(=O)[C@@H](NC(=O)/C(=N\OC)c3csc(N)n3)[C@H]2SC1 (stereo partly specified) 0.987 µM (active)

Quickly give me recorded EC50 for `CC(C)/C(=N/Nc1ccccc1[N+](=O)[O-])c1ccccc1` 52.5 µM (active)
